test: Cytotoxicity against human H4 cells assessed as cell viability at 30 uM incubated for 24 hrs by CCK-8 assay relative to control; assay type: toxicity, cell-based; conditions: read-out: Activity
Give viability at 24 h, 30 µM for every item shown.
The answer is to be given in %; state only the numeric part.

viability at 24 h, 30 µM recorded for this compound, O=C(Nc1cc(O)ccc1O)c1cc(-c2ccc(Br)cc2)n[nH]1 , is 95

viability at 24 h, 30 µM recorded for this compound, O=C(Nc1ccc(O)c(O)c1)c1cc(-c2ccc(C(F)(F)F)cc2)n[nH]1 , is 95

viability at 24 h, 30 µM recorded for this compound, O=C(Nc1cc(O)ccc1O)c1cc(-c2ccc(C(F)(F)F)cc2)n[nH]1 , is 95

viability at 24 h, 30 µM recorded for this compound, Cc1ccc(-c2cc(C(=O)Nc3cc(O)ccc3O)[nH]n2)cc1 , is 74

The origin of these recorded values is ChEMBL document CHEMBL5505980.
